- Tested on: PC-3
- assayProcedure: Cytotoxicity against human PC3 cells after 5 days by SRB assay
- Format: functional, cell-based
- condition: PC-3, 120 h
pIC50: −log10 of the molar value.
pIC50 below 5 gives NO; pIC50 at or above it gives YES.

INSERT INTO assay_data (chemicalstring, targetofassay, labelclass) VALUES
  ('O=C(CCCc1ccccc1)N[C@H]1CCOC1=O', 'PC-3', 'NO'),
  ('O=C(CCCCCCCc1ccccc1)CC(=O)N[C@H]1CCOC1=O', 'PC-3', 'YES'),
  ('O=C(CCCCCCCc1ccccc1)N[C@H]1CCOC1=O', 'PC-3', 'NO'),
  ('O=C(CCCCCCCCCCCc1ccccc1)CC(=O)N[C@H]1CCOC1=O', 'PC-3', 'YES'),
  ('O=C(CCCCCCCCCCc1ccccc1)CC(=O)N[C@H]1CCOC1=O', 'PC-3', 'YES'),
  ('O=C(CCCCCCCCCCc1ccccc1)N[C@H]1CCOC1=O', 'PC-3', 'NO'),
  ('O=C(CCCCCCCCCCCc1ccccc1)N[C@H]1CCOC1=O', 'PC-3', 'NO'),
  ('O=C(CCCc1ccccc1)CC(=O)N[C@H]1CCOC1=O', 'PC-3', 'NO'),
  ('O=C(CCCCCc1ccccc1)N[C@H]1CCOC1=O', 'PC-3', 'NO'),
  ('O=C(CCCCCCc1ccccc1)N[C@H]1CCOC1=O', 'PC-3', 'NO'),
  ('O=C(CCCCCCCCCc1ccccc1)CC(=O)N[C@H]1CCOC1=O', 'PC-3', 'YES'),
  ('O=C(Cc1ccccc1)N[C@H]1CCOC1=O', 'PC-3', 'NO');
